Values were extracted from ChEMBL document CHEMBL2040839.

Test system: Plasmodium falciparum
Assay: Antiplasmodial activity against chloroquine-resistant blood-stage Plasmodium falciparum W2 after 48 hrs by flow cytometric analysis
Type: functional, organism-based
Conditions: W2, 48 h
Reported IC50 by item:
Attribute measured: IC50

1) CC(C)C[C@@H](NC(=O)/C=C/c1ccc(N)cc1)C(=O)N[C@H](CCc1ccccc1)C(=O)Nc1ccnc2cc(Cl)ccc12; 3.28 µM
2) CC(C)C[C@@H](NC(=O)/C=C/c1ccc(Br)cc1)C(=O)N[C@H](CCc1ccccc1)C(=O)Nc1ccnc2cc(Cl)ccc12; 2.55 µM
3) C[C@@H]1CC[C@H]2[C@@H](C)C(=O)O[C@@H]3O[C@@]4(C)CC[C@@H]1[C@]32OO4; 0.00876 µM
4) COc1ccc(/C=C/C(=O)Nc2ccnc3cc(Cl)ccc23)cc1; > 10 µM
5) COc1ccc(/C=C/C(=O)N[C@H](CC(C)C)C(=O)N[C@H](CCc2ccccc2)C(=O)Nc2ccnc3cc(Cl)ccc23)cc1; 10.8 µM
6) CC(C)C[C@@H](NC(=O)/C=C/c1ccc(C(C)C)cc1)C(=O)N[C@H](CCc1ccccc1)C(=O)Nc1ccnc2cc(Cl)ccc12; 0.83 µM
7) CC(C)C[C@@H](NC(=O)/C=C/c1ccccc1[N+](=O)[O-])C(=O)N[C@H](CCc1ccccc1)C(=O)Nc1ccnc2cc(Cl)ccc12; 1.66 µM
